# experiment: Cytotoxicity against human HEK293 cells incubated for 72 hrs by MTT assay
# Type: toxicity, cell-based
measured quantity: EC50 at 72 h

> print(dat)
                                  structure  observed.result
1  COc1ccc(Cn2c(-c3ccccc3O)nn(CN3CCN(c4c(F)cc5c(=O)c(C(=O)O)cn(C6CC6)c5c4Cl)CC3)c2=S)cc1          50.5 µM
2  O=C(O)c1cn(C2CC2)c2c(Cl)c(N3CCN(Cn4nc(-c5ccccc5O)n(Cc5ccc(F)cc5)c4=S)CC3)c(F)cc2c1=O          50.5 µM
3  O=C(O)c1cn(C2CC2)c2c(Cl)c(N3CCN(Cn4nc(-c5ccccc5O)n(-c5cc(Cl)cc(Cl)c5)c4=S)CC3)c(F)cc2c1=O          50.5 µM

====

Parameter MIC: see the listing below.
# Tested on: Staphylococcus aureus
# experiment: Antibacterial activity against methicillin-resistant Staphylococcus aureus assessed as inhibition of microbial growth
# Format: functional
measured quantity: MIC (µg/mL)

> print(dat)
                                    compound  observed.result
 1  CNCC1CN(c2ccc3c(=O)c(C(=O)O)cn(C4CC4)c3c2C(C)=O)CC1(C)C (configuration not stated)            0.015
 2  CNCC1CN(c2ccc3c(=O)c(C(=O)O)cn(C4CC4)c3c2)CC1(C)C (configuration not stated)            0.015
 3  CC1(C)CN(c2ccc3c(=O)c(C(=O)O)cn(C4CC4)c3n2)CC1CN (configuration not stated)            0.015
 4  COc1c(N2CCNC(C)C2)c(F)cc2c(=O)c(C(=O)O)cn(C3CC3)c12 (configuration not stated)             0.06
 5  CC1(C)CN(c2ccc3c(=O)c(C(=O)O)cn(C4CC4)c3c2)CC1CN (configuration not stated)            0.015
 6  CC(=O)c1c(N2CC(CN)C(C)(C)C2)cc(N)c2c(=O)c(C(=O)O)cn(C3CC3)c12 (configuration not stated)            0.015
 7  CNCC1CN(c2ccc3c(=O)c(C(=O)O)cn(C4CC4)c3n2)CC1(C)C (configuration not stated)            0.015
 8  O=C(O)c1cn(C2CC2)c2cc(N3CCNCC3)c(F)cc2c1=O             0.06
 9  CNCC1CN(c2ccc3c(=O)c(C(=O)O)cn(-c4ccc(F)cc4F)c3n2)CC1(C)C (configuration not stated)            0.015
10  CC(=O)c1c(N2CC(CN)C(C)(C)C2)ccc2c(=O)c(C(=O)O)cn(C3CC3)c12 (configuration not stated)            0.015
11  CNCC1CN(c2cc(N)c3c(=O)c(C(=O)O)cn(C4CC4)c3c2C(C)=O)CC1(C)C (configuration not stated)            0.015
12  CC1(C)CN(c2ccc3c(=O)c(C(=O)O)cn(-c4ccc(F)cc4F)c3n2)CC1CN (configuration not stated)            0.015

====

# System: Staphylococcus aureus
# experiment: Antimicrobial activity against methicillin-resistant Staphylococcus aureus clinical isolate 2 measured after 18 hrs by agar dilution method
# Format: functional
Reported values of MIC for individual entries
measured quantity: MIC (µg/mL)

> print(dat)
                                  structure  observed.result
1  CCn1cc(C(=O)O)c(=O)c2cc(F)c(N3CCNCC3)cc21             0.78
2  O=C(O)c1cn(C2CC2)c2cc(N3CCN(C/C(=N/O)c4cccs4)CC3)c(F)cc2c1=O             0.19
3  O=C(O)c1cn(C2CC2)c2cc(N3CCN(C/C(=N/O)c4ccco4)CC3)c(F)cc2c1=O             0.19
4  NO/N=C(/CN1CCN(c2cc3c(cc2F)c(=O)c(C(=O)O)cn3C2CC2)CC1)c1cccs1             0.19
